Origin of values: PubChem BioAssay AID1645865

# target: Ubiquitin carboxyl-terminal hydrolase 30 (Homo sapiens) (UniProt Q70CQ3)
# Sequence (Q70CQ3 whole entry, looked up): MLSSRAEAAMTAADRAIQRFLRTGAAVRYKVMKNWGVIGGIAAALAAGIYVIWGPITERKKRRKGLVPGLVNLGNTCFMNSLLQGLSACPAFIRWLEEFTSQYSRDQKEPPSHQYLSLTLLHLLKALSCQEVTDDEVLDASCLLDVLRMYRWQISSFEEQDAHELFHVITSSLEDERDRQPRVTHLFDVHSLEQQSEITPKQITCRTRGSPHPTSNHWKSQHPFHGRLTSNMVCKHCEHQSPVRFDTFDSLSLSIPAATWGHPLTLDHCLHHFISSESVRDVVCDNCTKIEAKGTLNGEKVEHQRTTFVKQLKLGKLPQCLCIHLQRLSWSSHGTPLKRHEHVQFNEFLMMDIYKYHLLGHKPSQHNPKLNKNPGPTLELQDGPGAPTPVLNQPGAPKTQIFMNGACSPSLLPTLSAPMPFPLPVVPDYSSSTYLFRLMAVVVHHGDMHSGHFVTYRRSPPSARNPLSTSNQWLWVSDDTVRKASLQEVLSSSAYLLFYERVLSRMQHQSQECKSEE
# test-details: inhibitors of ubiquitin-specific protease 30 deubiquitylating enzyme, concentration dependence, in vitro biochemical, validation of primary hits (AID 1645865)
# condition-notes: purified USP30, Ub-rhodamine cleavage, fluorescence, 2 h
Activity calls are given as the source filed them.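 The calls were made as follows: active = maximal inhibition of the USP30 enzyme reaching 30% or more across the dose series; inactive = the rest.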
Possible outcomes: active, inactive

[
  {
    "compound": "N#C/C(=C\\c1ccc(OCc2cccc(C(=O)O)c2)cc1)c1ccc(F)cc1",
    "label": "inactive"
  },
  {
    "compound": "Cc1cc(C#N)c2c(C)ccc(C(C)C)cc1-2",
    "label": "inactive"
  },
  {
    "compound": "O=C(NC(Cc1ccccc1)c1nc2ccccc2[nH]1)C1CC1 (stereo not drawn)",
    "label": "inactive"
  },
  {
    "compound": "Cc1ccccc1C(=O)OCCN1C(=O)c2cccc3c(N4CCOCC4)ccc(c23)C1=O",
    "label": "inactive"
  },
  {
    "compound": "CC(C)CC[C@H]1O[C@@H](CC(=O)O)Cc2cc3c(c(O)c21)C(=O)c1sc(=O)n(C)c1C3=O",
    "label": "inactive"
  },
  {
    "compound": "COc1ccc(/C=C/C(=O)N2CCc3ccccc32)cc1S(=O)(=O)N1CCOCC1",
    "label": "inactive"
  },
  {
    "compound": "CCOc1ccc2c(c1)c(=O)c(C(=O)c1ccccc1)cn2CC(=O)Nc1ccc2c(c1)OCCO2",
    "label": "active"
  },
  {
    "compound": "O=C(CN1C=NC2=NS(=O)(=O)c3ccccc3N21)Nc1cc(F)ccc1F",
    "label": "active"
  },
  {
    "compound": "CC(=O)N1CCOc2cc(S(=O)(=O)N3CCCC3c3cc(C)no3)ccc21 (stereo not drawn)",
    "label": "inactive"
  },
  {
    "compound": "O=C(Cc1noc2ccccc12)NCC(=O)Nc1ccc(Cl)cc1",
    "label": "active"
  },
  {
    "compound": "C=C[C@]1(C)C=C2C(=O)[C@]3(O)OC(=O)[C@@]4(CCCC(C)(C)[C@H]34)[C@@]2(O)CC1",
    "label": "active"
  },
  {
    "compound": "CCn1c(SCc2nc(N)c3ccccc3n2)nc2ccccc21",
    "label": "inactive"
  },
  {
    "compound": "O=c1[nH]c(C2CCN(S(=O)(=O)c3ccc(S(=O)(=O)NC4CCCCC4)cc3)CC2)nc2c1nnn2Cc1c(F)cccc1Cl",
    "label": "active"
  }
]

====

# target: Ubiquitin carboxyl-terminal hydrolase 30 (Homo sapiens) (UniProt Q70CQ3)
# test-details: inhibitors of ubiquitin-specific protease 30 deubiquitylating enzyme, concentration dependence, in vitro biochemical, validation of primary hits (AID 1645865)
# condition-notes: purified USP30, Ub-rhodamine cleavage, fluorescence, 2 h
The source made the active and inactive calls.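 Rule for the calls: active = maximal inhibition of the USP30 enzyme reaching 30% or more across the dose series; inactive = the rest.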
Recorded IC50 for the following molecules

[
  {
    "structure-smiles-string": "O=C(COc1nsnc1N1CCOCC1)Nc1ccc(F)c(F)c1",
    "target": "Ubiquitin carboxyl-terminal hydrolase 30 (Homo sapiens) (UniProt Q70CQ3)",
    "IC50": "> 50 µM (inactive)"
  },
  {
    "structure-smiles-string": "CN1C(=O)COc2ccc(NC(=O)c3cc(-c4ccccc4)on3)cc21",
    "target": "Ubiquitin carboxyl-terminal hydrolase 30 (Homo sapiens) (UniProt Q70CQ3)",
    "IC50": "14.1 µM"
  },
  {
    "structure-smiles-string": "Cc1c(C(=O)Nc2cccc(C(F)(F)F)c2)cnn1-c1ccccn1",
    "target": "Ubiquitin carboxyl-terminal hydrolase 30 (Homo sapiens) (UniProt Q70CQ3)",
    "IC50": "36 µM"
  },
  {
    "structure-smiles-string": "COc1cccc(NC(=O)c2ccc(-c3csc(C)n3)cc2)c1",
    "target": "Ubiquitin carboxyl-terminal hydrolase 30 (Homo sapiens) (UniProt Q70CQ3)",
    "IC50": "> 50 µM (inactive)"
  },
  {
    "structure-smiles-string": "O=C(COC(=O)c1ccc2[nH]c3c(c2c1)CCCC3)Nc1ccc2c(c1)OCO2",
    "target": "Ubiquitin carboxyl-terminal hydrolase 30 (Homo sapiens) (UniProt Q70CQ3)",
    "IC50": "37.7 µM"
  }
]
